System: tyrosinase activity in S91 mouse melanoma cells
method: Induction of tyrosinase activity in S91 cells
measurement-conditions: 1 mM (Table 15)
Structures can show the parent of a compound that is named as a salt.
readout-label: Fold Induction of Tyrosinase Relative to Controls (X)

molecule | value
O=C(O)CC1CC2CCC1C2 (stereo not shown) | 4.6
O=C(O)[C@@H]1[C@H](C(=O)O)[C@@H]2C=C[C@H]1C2 | 2.2

I = O=COC1CC2CCC1C2 (racemic) [± exo-2-norbornyl formate]
II = OCC1(CO)CC2C=CC1C2 (stereo not shown)
stdin: Quick one: lower Fold Induction of Tyrosinase Relative to Controls, I or II ? Please respond with the label that marks your chosen entry.
stdout: I
(I: 2.7 X, II: 4.0 X)
